Data credit: paper PMC9317327

Test system: Vibrio alginolyticus (A056)
Type: cell-based
protocol_conditions: 2 h, pH 7.2
Where a SMILES comes first, the peptide text is derived from it.
# MIC per entry

## Input Look at this compound and give its reported MIC. CC[C@H](C)[C@H](NC(=O)CNC(=O)[C@H](Cc1c[nH]cn1)NC(=O)[C@H](CCCNC(=N)N)NC(=O)[C@H](CC(C)C)NC(=O)[C@H](Cc1ccccc1)NC(=O)CNC(=O)[C@H](C)NC(=O)[C@H](Cc1ccccc1)NC(=O)[C@@H](NC(=O)[C@@H](N)CCCNC(=N)N)C(C)C)C(=O)N[C@@H](CCCCN)C(=O)N[C@@H](CCCNC(=N)N)C(=O)N[C@@H](CO)C(=O)N[C@@H](CCCNC(=N)N)C(=O)O [NpHM4] (H-RVFAGFLRHGIKRSR-OH)
## Output 5 to 25 µM

###

Tested on: Vibrio alginolyticus (A056)
Assay type: cell-based
protocol_conditions: 2 h, pH 7.2
Where a SMILES comes first, the peptide text is derived from it.
observed_property: MIC

Previously resolved entries follow.
[[record]]
compound = "CC[C@H](C)[C@H](NC(=O)CNC(=O)[C@H](Cc1c[nH]cn1)NC(=O)[C@H](CC(C)C)NC(=O)[C@H](CC(C)C)NC(=O)[C@H](Cc1ccccc1)NC(=O)CNC(=O)[C@H](C)NC(=O)[C@H](CCCNC(=N)N)NC(=O)[C@@H](NC(=O)[C@@H](N)CCCNC(=N)N)C(C)C)C(=O)N[C@@H](CCCCN)C(=O)N[C@@H](CCCNC(=N)N)C(=O)N[C@@H](CO)C(=O)N[C@@H](C)C(=O)O [NpHM3] (H-RVRAGFLLHGIKRSA-OH)"
assayed_system = "Vibrio alginolyticus (A056)"
observed_value = "30 to 75 µM"

[[record]]
compound = "CSCC[C@H](NC(=O)[C@H](Cc1ccccc1)NC(=O)CNC(=O)[C@H](C)NC(=O)[C@H](Cc1ccccc1)NC(=O)[C@@H](N)C(C)C)C(=O)N[C@@H](CC(C)C)C(=O)N[C@@H](Cc1c[nH]cn1)C(=O)NCC(=O)N[C@@H](Cc1ccccc1)C(=O)N[C@@H](CCCCN)C(=O)N[C@@H](CCCCN)C(=O)N[C@@H](CO)C(=O)N[C@@H](C)C(=O)N[C@@H](CC(C)C)C(=O)N[C@H](C(=O)O)C(C)C [NpHN1] (H-VFAGFMLHGFKKSALV-OH)"
assayed_system = "Vibrio alginolyticus (A056)"
observed_value = "50 to 260 µM"

[[record]]
compound = "CC[C@H](C)[C@H](NC(=O)[C@H](CCCNC(=N)N)NC(=O)[C@@H](NC(=O)[C@H](CC(N)=O)NC(=O)[C@H](C)NC(=O)[C@H](CO)NC(=O)[C@H](C)NC(=O)[C@H](CCC(N)=O)NC(=O)[C@@H](NC(=O)CNC(=O)[C@H](Cc1c[nH]cn1)NC(=O)[C@H](CC(C)C)NC(=O)[C@H](CC(C)C)NC(=O)[C@H](Cc1ccccc1)NC(=O)CN)[C@@H](C)CC)C(C)C)C(=O)O [NpHN4] (H-GFLLHGIQASANVRI-OH)"
assayed_system = "Vibrio alginolyticus (A056)"
observed_value = "100 to 300 µM"

[[record]]
compound = "CC[C@H](C)[C@H](NC(=O)[C@H](CS)NC(=O)[C@H](CS)NC(=O)[C@H](C)NC(=O)[C@H](Cc1ccc(O)cc1)NC(=O)[C@H](CCCNC(=N)N)NC(=O)[C@H](Cc1c[nH]cn1)NC(=O)[C@H](CC(C)C)NC(=O)[C@H](C)NC(=O)[C@@H](N)CCCCN)C(=O)N[C@@H](Cc1c[nH]cn1)C(=O)NCC(=O)N[C@@H](CCSC)C(=O)N[C@@H](C)C(=O)N[C@H](C(=O)O)[C@@H](C)O [NpHN3] (H-KALHRYACCIHGMAT-OH)"
assayed_system = "Vibrio alginolyticus (A056)"
observed_value = "50 to 250 µM"


In the following, a different compound is considered.
## Input Look at this compound and give its reported MIC. CC[C@H](C)[C@H](NC(=O)CNC(=O)[C@H](Cc1c[nH]cn1)NC(=O)[C@H](CCCNC(=N)N)NC(=O)[C@H](CC(C)C)NC(=O)[C@H](Cc1ccccc1)NC(=O)CNC(=O)[C@H](C)NC(=O)[C@H](Cc1ccccc1)NC(=O)[C@@H](NC(=O)[C@@H](N)CCCNC(=N)N)C(C)C)C(=O)N[C@@H](CCCCN)C(=O)N[C@@H](CCCNC(=N)N)C(=O)N[C@@H](CO)C(=O)N[C@@H](C)C(=O)O [NpHM1] (H-RVFAGFLRHGIKRSA-OH)
## Output 50 to 150 µM

###

Test system: Bacillus subtilis ATCC 6051
Type: cell-based
protocol_conditions: ATCC 6051, 2 h, pH 7.2
Procedure: The antimicrobial activity of the peptides was determined against Gram-negative bacteria, including V. alginolyticus (A056), E. coli (DH5α), and V. parahaemolyticus (2013V-1174), which were obtained from the South China Sea Institute of Oceanology, Chinese Academy of Sciences. […] Then, 6 μL of each serially diluted mixture was plated on sterile 12-well agar plates, followed by incubation for 11 to 12 h, and the colonies were assessed to determine the MICs and MBCs. […]
Where a SMILES comes first, the peptide text is derived from it.
# MBC per entry

Previously resolved entries follow.
[[record]]
compound = "CC[C@H](C)[C@H](NC(=O)CNC(=O)[C@H](Cc1c[nH]cn1)NC(=O)[C@H](CCCNC(=N)N)NC(=O)[C@H](CC(C)C)NC(=O)[C@H](Cc1ccccc1)NC(=O)CNC(=O)[C@H](C)NC(=O)[C@H](Cc1ccccc1)NC(=O)[C@@H](NC(=O)[C@@H](N)CCCNC(=N)N)C(C)C)C(=O)N[C@@H](CCCCN)C(=O)N[C@@H](CCCNC(=N)N)C(=O)N[C@@H](CO)C(=O)N[C@@H](C)C(=O)O [NpHM1] (H-RVFAGFLRHGIKRSA-OH)"
observed_value = ">60 µM"

[[record]]
compound = "CC[C@H](C)[C@H](NC(=O)CNC(=O)[C@H](Cc1c[nH]cn1)NC(=O)[C@H](CC(C)C)NC(=O)[C@H](CC(C)C)NC(=O)[C@H](Cc1ccccc1)NC(=O)CNC(=O)[C@H](C)NC(=O)[C@H](CCCNC(=N)N)NC(=O)[C@@H](NC(=O)[C@@H](N)CCCNC(=N)N)C(C)C)C(=O)N[C@@H](CCCCN)C(=O)N[C@@H](CCCNC(=N)N)C(=O)N[C@@H](CO)C(=O)N[C@@H](C)C(=O)O [NpHM3] (H-RVRAGFLLHGIKRSA-OH)"
observed_value = ">60 µM"

[[record]]
compound = "CC[C@H](C)[C@H](NC(=O)CNC(=O)[C@H](Cc1c[nH]cn1)NC(=O)[C@H](CCCNC(=N)N)NC(=O)[C@H](CC(C)C)NC(=O)[C@H](Cc1ccccc1)NC(=O)CNC(=O)[C@H](C)NC(=O)[C@H](Cc1ccccc1)NC(=O)[C@@H](NC(=O)[C@@H](N)CCCNC(=N)N)C(C)C)C(=O)N[C@@H](CCCCN)C(=O)N[C@@H](CCCNC(=N)N)C(=O)N[C@@H](CO)C(=O)N[C@@H](CCCNC(=N)N)C(=O)O [NpHM4] (H-RVFAGFLRHGIKRSR-OH)"
observed_value = ">50 µM"


## Input Look at this compound and give its reported MBC. CC[C@H](C)[C@H](NC(=O)CNC(=O)[C@H](Cc1c[nH]cn1)NC(=O)[C@H](CCCNC(=N)N)NC(=O)[C@H](CC(C)C)NC(=O)[C@H](Cc1ccccc1)NC(=O)CNC(=O)[C@H](C)NC(=O)[C@H](CCCNC(=N)N)NC(=O)[C@@H](NC(=O)[C@@H](N)CCCNC(=N)N)C(C)C)C(=O)N[C@@H](CCCCN)C(=O)N[C@@H](CCCNC(=N)N)C(=O)N[C@@H](CO)C(=O)N[C@@H](C)C(=O)O [NpHM6] (H-RVRAGFLRHGIKRSA-OH)
## Output >50 µM

## Input How about CC[C@H](C)[C@H](NC(=O)CNC(=O)[C@H](Cc1c[nH]cn1)NC(=O)[C@H](CCCNC(=N)N)NC(=O)[C@H](CC(C)C)NC(=O)[C@H](Cc1ccccc1)NC(=O)CNC(=O)[C@H](C)NC(=O)[C@H](CCCNC(=N)N)NC(=O)[C@@H](NC(=O)[C@@H](N)CCCNC(=N)N)C(C)C)C(=O)N[C@@H](CCCCN)C(=O)N[C@@H](CCCNC(=N)N)C(=O)N[C@@H](CO)C(=O)N[C@@H](CCCNC(=N)N)C(=O)O [NpHM7] (H-RVRAGFLRHGIKRSR-OH) ?
## Output >150 µM

## Input How about CC[C@H](C)[C@H](NC(=O)CNC(=O)[C@H](Cc1c[nH]cn1)NC(=O)[C@H](CC(C)C)NC(=O)[C@H](CC(C)C)NC(=O)[C@H](Cc1ccccc1)NC(=O)CNC(=O)[C@H](C)NC(=O)[C@H](CCCNC(=N)N)NC(=O)[C@@H](NC(=O)[C@@H](N)CCCNC(=N)N)C(C)C)C(=O)N[C@@H](CCCCN)C(=O)N[C@@H](CCCNC(=N)N)C(=O)N[C@@H](CO)C(=O)N[C@@H](CCCNC(=N)N)C(=O)O [NpHM5] (H-RVRAGFLLHGIKRSR-OH) ?
## Output >50 µM
